# collection of IC50 values tested on UniProt P00533
# Sequence (P00533 25-1210): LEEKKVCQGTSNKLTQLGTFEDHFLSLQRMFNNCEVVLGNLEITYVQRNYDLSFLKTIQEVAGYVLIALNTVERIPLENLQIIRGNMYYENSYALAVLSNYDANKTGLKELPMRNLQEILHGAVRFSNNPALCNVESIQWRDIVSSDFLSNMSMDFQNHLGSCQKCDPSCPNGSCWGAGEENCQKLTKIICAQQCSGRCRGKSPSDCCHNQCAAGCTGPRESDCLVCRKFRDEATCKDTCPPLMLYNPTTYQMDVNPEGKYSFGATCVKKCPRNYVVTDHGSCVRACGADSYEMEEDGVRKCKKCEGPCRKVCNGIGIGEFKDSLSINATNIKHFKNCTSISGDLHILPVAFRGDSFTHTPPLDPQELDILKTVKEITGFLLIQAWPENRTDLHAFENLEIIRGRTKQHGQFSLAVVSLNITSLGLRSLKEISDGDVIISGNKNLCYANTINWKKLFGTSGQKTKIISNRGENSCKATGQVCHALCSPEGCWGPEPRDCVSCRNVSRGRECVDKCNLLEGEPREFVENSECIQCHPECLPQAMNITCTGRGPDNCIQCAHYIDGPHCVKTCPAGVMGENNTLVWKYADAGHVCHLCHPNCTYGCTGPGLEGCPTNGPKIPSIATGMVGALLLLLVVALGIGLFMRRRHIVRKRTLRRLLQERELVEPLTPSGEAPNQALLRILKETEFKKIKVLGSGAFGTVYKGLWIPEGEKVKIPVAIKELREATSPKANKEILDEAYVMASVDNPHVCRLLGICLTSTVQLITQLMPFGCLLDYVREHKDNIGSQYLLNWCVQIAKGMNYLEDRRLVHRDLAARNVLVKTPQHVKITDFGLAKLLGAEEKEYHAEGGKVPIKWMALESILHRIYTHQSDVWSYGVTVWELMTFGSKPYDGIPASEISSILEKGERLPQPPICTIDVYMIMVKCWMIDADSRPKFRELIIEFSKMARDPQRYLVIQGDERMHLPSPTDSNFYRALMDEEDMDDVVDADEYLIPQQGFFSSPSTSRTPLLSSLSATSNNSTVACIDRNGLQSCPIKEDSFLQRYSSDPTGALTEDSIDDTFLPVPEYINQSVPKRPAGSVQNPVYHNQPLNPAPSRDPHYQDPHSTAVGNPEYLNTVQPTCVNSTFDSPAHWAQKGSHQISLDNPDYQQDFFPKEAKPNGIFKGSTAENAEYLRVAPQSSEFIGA
One number for each entry, in nM.

COc1ccc(-c2nn(-c3ccc(S(C)(=O)=O)cc3)cc2/C=N/N=c2\[nH]c(-c3ccc(Br)cc3)cs2)cc1 [Compound 18c]: 226
CC(C)Cc1ccc(-c2nn(-c3ccc(S(C)(=O)=O)cc3)cc2/C=N/N=c2\[nH]c(-c3ccc([N+](=O)[O-])cc3)cs2)cc1 [Compound 18f]: 190

Query block: Check the records and state IC50 for COc1ccc(-c2nn(-c3ccc(S(C)(=O)=O)cc3)cc2C=N/N=c2\[nH]c(-c3ccc([N+](=O)[O-])cc3)cs2)cc1 [Compound 18d]
Result block: 388

* * *

Tested on: A549 small lung cancer cell line
Assay: MTT cell viability assay, A549
Format: cell-based
Condition info: Homo sapiens, A549, 48 h, read-out: A549 IC50, MTT, 48 h, mean of six values
Parameter: IC50

Query block: Check the records and state IC50 for CC(C)Cc1ccc(-c2nn(-c3ccc(S(C)(=O)=O)cc3)cc2/C=N/N=c2\[nH]c(-c3ccc([N+](=O)[O-])cc3)cs2)cc1 [Compound 18f]
Result block: 1.64 to 14.3 µM
